Catalogue of pIC50 values
# TESTED TARGET: human recombinant LPA1 receptor (Homo sapiens)
# Sequence (Q92633 whole entry): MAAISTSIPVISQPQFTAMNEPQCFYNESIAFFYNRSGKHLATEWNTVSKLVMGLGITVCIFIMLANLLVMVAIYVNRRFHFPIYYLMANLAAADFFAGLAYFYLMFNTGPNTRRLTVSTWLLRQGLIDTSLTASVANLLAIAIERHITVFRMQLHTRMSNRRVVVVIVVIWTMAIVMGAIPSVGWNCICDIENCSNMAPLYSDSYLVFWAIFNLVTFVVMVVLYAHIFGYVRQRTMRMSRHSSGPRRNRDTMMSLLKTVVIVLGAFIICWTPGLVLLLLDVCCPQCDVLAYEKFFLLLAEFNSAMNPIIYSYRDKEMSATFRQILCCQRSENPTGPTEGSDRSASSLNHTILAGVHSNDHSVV
# ASSAY: Calcium flux assay, antagonism of LPA-induced calcium flux
# RECORDED CONDITIONS: read-out: IC50, inhibition of LPA-induced calcium flux; human LPA1-expressing Chem-1 cells; 1 μM Oleoyl LPA
pIC50: −log10 of the molar value.

# MOLECULE, pIC50
records = [
    ("Cc1noc(-c2ccc(CSCCC(=O)O)cc2)c1NC(=O)OC(C)c1ccccc1Cl (stereo not drawn) [Ki16425, reference compound]", 6.89),
    ("Cc1noc(-c2ccc(CSCCC(=O)O)cc2)c1NC(=O)O[C@H](C)c1ccccc1Cl", 7.22),
    ("Cc1noc(-c2ccc(CSCCC(=O)O)cc2)c1NC(=O)O[C@@H](C)c1ccccc1Cl [Debio 0719-425(S)]", 5.55),
]

---

Catalogue of pIC50 values
# TESTED TARGET: LPA3 (Homo sapiens, UniProt Q9UBY5)
# Sequence (Q9UBY5 1-353): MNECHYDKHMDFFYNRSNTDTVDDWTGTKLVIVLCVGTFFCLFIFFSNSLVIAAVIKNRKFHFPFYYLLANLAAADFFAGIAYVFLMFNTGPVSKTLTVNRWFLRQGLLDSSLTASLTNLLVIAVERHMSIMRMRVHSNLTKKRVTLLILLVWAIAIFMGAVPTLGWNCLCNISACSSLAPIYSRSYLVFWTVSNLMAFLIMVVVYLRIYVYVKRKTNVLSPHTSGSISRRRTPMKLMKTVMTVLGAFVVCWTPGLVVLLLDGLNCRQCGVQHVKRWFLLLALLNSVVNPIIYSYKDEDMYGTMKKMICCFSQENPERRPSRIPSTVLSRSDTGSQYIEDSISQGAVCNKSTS
# ASSAY: Antagonist activity at LPA3
# RECORDED CONDITIONS: read-out: IC50, antagonist activity at LPA3
pIC50: −log10 of the molar value.

# MOLECULE, pIC50
rows = [
    ("Cc1noc(-c2ccc(CSCCC(=O)O)cc2)c1NC(=O)O[C@H](C)c1ccccc1Cl", 6.18),
    ("Cc1noc(-c2ccc(CSCCC(=O)O)cc2)c1NC(=O)OC(C)c1ccccc1Cl (centres unmarked) [Ki16425, reference compound]", 5.64),
]
